Test system: K. pneumoniae NVT1001 strains with carbapenemase plasmids
Assay Protocol: Etest MIC of β-lactams, OmpK35/36 loss, ΔramR and/or carbapenemase (Table 9)
Format: cell-based, Klebsiella pneumoniae
Experimental Parameters: Klebsiella pneumoniae, VIM-1 on pACYC177; Δ35 (ΔompK35 mutant)
The entries below are paired with their reported MIC.

# Chemical Structure, Operator Symbol, MIC (µg/mL)
records = [
    ("CC(=O)OCC1=C(C(=O)O)N2C(=O)[C@@H](NC(=O)Cc3cccs3)[C@H]2SC1", ">", 256),
    ("C[C@@H](O)[C@H]1C(=O)N2C(C(=O)O)=C(S[C@@H]3CN[C@H](C(=O)N(C)C)C3)[C@H](C)[C@H]12", ">", 32),
    ("C[C@H]1[C@H](NC(=O)/C(=N\\OC(C)(C)C(=O)O)c2csc(N)n2)C(=O)N1S(=O)(=O)O", "=", 0.25),
    ("C[C@@H](O)[C@H]1C(=O)N2C(C(=O)O)=C(S[C@@H]3CN[C@H](C(=O)Nc4cccc(C(=O)O)c4)C3)[C@H](C)[C@H]12", "=", 4),
]

These data points were gathered from patent US10760110B2.
